Tested on: Microsporum audouinii
EXPERIMENTAL PROTOCOL: Summary of anti-fungal assays (direct addition, agar dilution, liquid culture)
Format: cell-based
CONDITION LABEL: stated in words (Tables 1a/1b, text to Table 5)
PROPERTY LABEL: Active against Microsporum audouinii

Some solved cases for reference:
- CC1(C)CCC23CC[C@@]4(C)C(CCC5[C@@]6(C)CCC(OC(=O)CCC(=O)O)C(C)(C)C6CC[C@]54C)C2C1OC3 (stereo partly shown) [Allobetulin-3-succinate]: Microsporum audouinii
- C=C(C)C1CCC2(COC(=O)CC(C)(C)CC(=O)O)CCC3(C)C(CCC4C5(C)CCC(OC(=O)CC(C)(C)CC(=O)O)C(C)(C)C5CCC43C)C12 (stereo not shown) [Betulin-3,28-di(3′,3′-dimethyl)glutarate]: Microsporum audouinii,
- CC1(C)CCC23CCC4(C)C(CCC5C6(C)CCC(OC(=O)CCCC(=O)O)C(C)(C)C6CCC54C)C2C1OC3 (stereo not shown) [Allobetulin-3-glutarate]: Microsporum audouinii
- C=C(C)[C@@H]1CC[C@]2(COC(=O)/C=C\C(=O)O)CC[C@]3(C)[C@H](CC[C@@H]4[C@@]5(C)CC[C@H](OC(=O)/C=C\C(=O)O)C(C)(C)[C@@H]5CC[C@]43C)[C@@H]12 [Betulin-3,28-dimaleate]: Microsporum audouinii
- CC1(C)CCC23CC[C@@]4(C)C(CCC5[C@@]6(C)CC[C@H](O)C(C)(C)C6CC[C@]54C)C2C1OC3 (stereo partly drawn) [Allobetulin, oleanan-3β-ol-28,19-β-ether]: Microsporum audouinii
- CC(C)C(N)C(=O)OC1CCC2(C)C(CCC3(C)C2CCC2C4C5OCC4(CCC5(C)C)CCC23C)C1(C)C [Allobetulin-3-L-valine]: Microsporum audouinii
- C=C(C)[C@@H]1CC[C@]2(COC(=O)c3ccccc3C(=O)O)CC[C@]3(C)[C@H](CC[C@@H]4[C@@]5(C)CC[C@H](OC(=O)c6ccccc6C(=O)O)C(C)(C)[C@@H]5CC[C@]43C)[C@@H]12 [Betulin-3,28-diphthalate]: Microsporum audouinii
- C=C(C)C1CCC2(COC(=O)CCC(=O)O)CC[C@@]3(C)C(CCC4[C@@]5(C)CCC(O)C(C)(C)C5CC[C@]43C)C12 (stereo partly shown) [Betulin-28-succinate]: Microsporum audouinii

Exercise: Lab request: please report Active against Microsporum audouinii under test system Microsporum audouinii for C=C(C)C1CCC2(COC(=O)c3ccccc3C(=O)O)CCC3(C)C(CCC4C5(C)CCC(O)C(C)(C)C5CCC43C)C12 (stereo not shown) [Betulin-28-phthalate]
Key: Microsporum audouinii

Exercise: Look up Active against Microsporum audouinii with Microsporum audouinii for this compound: C=C(C)[C@@H]1CC[C@]2(CO)CC[C@]3(C)[C@H](CC[C@@H]4[C@@]5(C)CC[C@H](O)C(C)(C)[C@@H]5CC[C@]43C)[C@@H]12 [Betulin, lup-20(29)-ene-3,28-diol]
Key: Microsporum audouinii,

* * *

System: Microsporum canis
EXPERIMENTAL PROTOCOL: Agar dilution method, growth on Sabouraud dextrose agar slants
Assay type: cell-based
Parameters: key: +++: Maximum Fungal Growth; ++: Moderate Fungal Growth; +: Minimum Fungal Growth; +/−: Very little Fungal Growth; −: No Fungal Growth
CONDITION LABEL: 500 μg/ml; 12th day after inoculation
PROPERTY LABEL: Fungal growth

• C=C(C)C1CCC2(COC(=O)CCC(=O)O)CC[C@@]3(C)C(CCC4[C@@]5(C)CCC(OC(=O)CCC(=O)O)C(C)(C)C5CC[C@]43C)C12 (some centres unmarked) [Betulin-3,28-disuccinate] = +
• C=C(C)[C@@H]1CC[C@]2(COC(=O)c3ccccc3C(=O)O)CC[C@]3(C)[C@H](CC[C@@H]4[C@@]5(C)CC[C@H](OC(=O)c6ccccc6C(=O)O)C(C)(C)[C@@H]5CC[C@]43C)[C@@H]12 [Betulin-3,28-diphthalate] = −
• C[C@@H]1[C@H](O)[C@@H](C)/C=C/C=C/CC/C=C/C=C/C=C/C=C/C(O[C@H]2O[C@H](C)[C@@H](O)[C@H](N)[C@@H]2O)CC2O[C@](O)(CC(O)C(O)CCC(O)CC(O)CC(O)CC(=O)O[C@H]1C)CC(O)C2C(=O)O (some centres unmarked) [Nystatin, reference compound] = −
• C=C(C)[C@@H]1CC[C@]2(COC(=O)COCC(=O)O)CC[C@]3(C)[C@H](CC[C@@H]4[C@@]5(C)CC[C@H](OC(=O)COCC(=O)O)C(C)(C)[C@@H]5CC[C@]43C)[C@@H]12 [Betulin-3,28-didiglycolate] = +

Exercise: Returns the measured Fungal growth for the input compound. Input: C=C(C)C1CCC2(CO)CCC3(C)C(CCC4C5(C)CCC(OC(=O)C=CC(=O)O)C(C)(C)C5CCC43C)C12 (centres unmarked) [Betulin-3-maleate]
Key: +/−
